All figures here come from PubChem BioAssay.

# Assay Protocol: basal 3T3-L1 adipocyte mitochondrial potential changes, profiling panel, cell-based, JC-1 fluorescence, 3T3-L1 adipocytes, 24 h, 100 nL compound (AID 1168); further: test concentration not given here
# Applied Conditions: JC-1 mitochondrial fluorescence, higher = more signal, called active from +8 up or from −8 down
Attribute Measured: z-score

| Molecule | Attribute Measured | Value |
| --- | --- | --- |
| CO[C@H]1O[C@H](CO)[C@@H](OC(=O)Nc2cccc(F)c2)[C@H](OC(=O)Nc2ccc3c(c2)OCO3)[C@@H]1OC(=O)Nc1ccc2c(c1)OCO2 | z-score | -0.672 |
| C=C[C@H](OC)[C@@H](O)c1ccc(OC)c(O)c1 | z-score | 0.503 |
| CC1C2C(CCCO)=CC(C3C(=O)N(C(N)=O)C(=O)C23)N1Cc1cccc(OC(F)(F)F)c1 (stereo unspecified) | z-score | -0.795 |
| COc1ccc(CCNC(=O)[C@@H]2c3ccccc3C(=O)N(C(C)C)[C@H]2c2ccc(CO)cc2)cc1 | z-score | -0.232 |
| C[C@H]1C2[C@H](Cc3ccccc3)NC(=O)[C@]23C(=O)N[C@@H](Cc2ccccc2)C(=O)N2CCC[C@H]2C(=O)NC/C=C/CC/C=C/C3[C@@H]2O[C@]12C (stereo partly specified) | z-score | 0.308 |
| NCCCCCCNC(=O)[C@@H]1C[C@@H]2C(=O)NCC(=O)N2[C@@H]1c1cccc(OCCO)c1 | z-score | 0.885 |
| COCCOC(=O)N1C(=O)[C@@]2(c3cc(C#CCNC(N)=O)ccc31)[C@H](C(N)=O)[C@H]1C(=O)O[C@H](c3ccccc3)[C@H](c3ccccc3)N1[C@@H]2c1ccc(O)cc1 | z-score | -0.0468 |
| O=C1O[C@H](c2ccccc2)[C@H](c2ccccc2)N2[C@H]1[C@@H](C(=O)O)[C@]1(C(=O)Nc3ccc(C#CC4(O)CCCCCC4)cc31)[C@H]2c1ccccc1OCCO | z-score | -0.521 |
| O=C1OCC=C[C@H]2OC34C=CCN(Cn5nnc6ccccc65)C(=O)[C@H]3N(CCO)C(=O)[C@@H]4[C@@H]12 (stereo partly specified) | z-score | 0.765 |
| CN1C(=O)C2C(C1=O)C1C=C(CCCO)C2C(C2CC2)N1C (stereo unspecified) | z-score | 0.693 |
| CC(C)(C)OC(=O)N1[C@@H](C=C(Br)Br)COC1(C)C | z-score | 1.2 |
| C=CC[C@]1(C(=O)NCCN2CCOCC2)N=C(c2ccc(OCCCO)cc2)O[C@H]1c1ccccc1 | z-score | -0.442 |
| O=C(NC1CC1)[C@@H]1c2ccccc2C(=O)N(C2CCCCC2)[C@H]1c1ccc(CO)cc1 | z-score | -0.724 |
| CC(C)C[C@@H]1NC(=O)[C@@H]2C[C@H](C(=O)NCCCCCCNC(=O)CS)[C@H](c3ccc(O)cc3)N2C1=O | z-score | -0.226 |
| [N-]=[N+]=Nc1ccccc1C[C@@]1(C(=O)NCc2ccccc2)N=C(c2ccc(OCCCO)cc2)O[C@@H]1c1ccccc1 | z-score | -0.739 |
| Cc1cccc([C@H]2C[C@H]3C(Br)=C[C@@]2(CO)C(=O)[C@]32CO2)c1 | z-score | -0.0495 |
| C=C(CCCC)/C(=C/C[C@@H](OC(C)=O)c1ccc(OCCO)cc1)c1cc(C(=O)OC)ccc1OC | z-score | -1.5 |
| O=C1N(Cc2ccccc2)c2ccccc2C[C@@]12N=C(c1ccc(OCCCO)cc1)O[C@H]2c1ccccc1 | z-score | -0.0792 |
| Cc1ccc(S[C@]2(C(=O)NC(C)C)CC(=O)N(Cc3ccccc3)[C@@H]2c2ccc(CO)cc2)cc1 | z-score | 0.391 |
| O=C1O[C@H](c2ccccc2)[C@H](c2ccccc2)N2[C@H]1[C@@H](C(=O)O)[C@]1(C(=O)Nc3ccccc31)[C@H]2c1ccc(OCCO)cc1 | z-score | 0.254 |
| CC(C)(C)OC(=O)CC[C@]1(C(N)=O)N=C(c2ccc(OCCCO)cc2)O[C@H]1c1ccccc1N=[N+]=[N-] | z-score | -0.109 |
| [N-]=[N+]=NCc1ccccc1[C@H]1OC(c2ccc(OCCCO)cc2)=N[C@@]1(Cc1ccccc1N=[N+]=[N-])C(=O)N1CCOCC1 | z-score | -0.866 |
| CCOC(=O)C1=CCC(c2ccncc2)N(S(=O)(=O)c2ccc(C)cc2)C1 (stereo unspecified) | z-score | 0.561 |
| C=CC[C@H](O)c1ccc(O)c(F)c1 | z-score | 0.083 |
| CC(C)[Si]1(C(C)C)OCc2cc(-c3ccc(-c4ccc(Cl)c(Cl)c4)o3)nc(-c3ccc(Oc4ccccc4)cc3)c21 | z-score | -0.966 |
| COC(=O)[C@@]1(Cc2ccc(F)cc2)[C@H]2c3cc(C(=O)N4CCCC4)n(Cc4ccc(C(F)(F)F)nc4)c3C[C@H]2CN1C(=O)c1ccccc1 | z-score | -0.439 |
| C=C(C(=O)CC[C@H](OC(=O)c1ccccc1-c1ccccc1C(=O)O)c1ccc(OCCO)cc1)C(C)C | z-score | 0.447 |
| COc1ccc(C(=O)Nc2ccc(CN3C(=O)[C@]4(O[C@H](CC(=O)N(CCO)Cc5ccccc5)[C@@H]([Si](C)(C)c5ccc(OC)cc5)[C@@H]4C)c4ccccc43)cc2)cc1 | z-score | 0.324 |
| CC(C)c1ccc(NN2C(C(O)C3CCCCC3)C=CC3C(=O)N(c4ccccc4)C(=O)C32)cc1 (stereo unspecified) | z-score | -0.176 |
| CN1C(=O)C2C=CC(C(O)COCc3ccccc3)N(Nc3ccc([N+](=O)[O-])cc3[N+](=O)[O-])C2C1=O (stereo unspecified) | z-score | -0.985 |
| C=C(C(=O)CC[C@@H](OC(=O)c1ccccc1-c1ccccc1C(=O)O)c1ccc(CO)o1)C(C)C | z-score | -0.747 |
